# Stated conditions: [M+K]+; instrument: DT; single field, calibrated with ESI Low Concentration Tuning Mix (Agilent)
Measured endpoint: collision cross section (N2)

1. Nc1ccn([C@H]2C[C@H](O)[C@@H](CO)O2)c(=O)n1 : 158.5 Å²
2. Nc1ccn(C2O[C@H](CO)[C@H]3OP(=O)(O)O[C@@H]23)c(=O)n1 (stereo partly drawn) [CYTIDINE 2',3'-CYCLIC PHOSPHATE] : 168 Å²
3. OC[C@H]1O[C@H](OC[C@H]2OC(O)(CO)[C@@H](O)[C@@H]2O)[C@H](O)[C@@H](O)[C@@H]1O (stereo partly drawn) : 177.6 Å²
4. CC(=O)N[C@@H]1[C@@H](O)[C@@H](O)[C@@H](CO)O[C@@H]1O : 151.4 Å²
5. OC[C@H]1O[C@@H](O[C@H]2[C@H](O)[C@@H](O)[C@H](O)O[C@@H]2CO)[C@H](O)[C@@H](O)[C@@H]1O : 180.9 Å²
6. Nc1nc(=O)c2[nH]cnc2[nH]1 : 136 Å²
7. O=C(O)[C@@H](O)[C@@H](O)[C@H](O)[C@@H](O)C(=O)O [SACCHARATE] : 148.8 Å²
8. O=P(O)(O)O[C@H]1O[C@H](CO)[C@H](O)[C@H](O)[C@H]1O [GALACTOSE 1-PHOSPHATE] : 158.5 Å²

----------
# Stated conditions: [M+H]+; instrument: TW; calibrated with phosphatidylcholines (ESI+) and phosphatidylethanolamines (ESI-), doubly charged cardiolipins calibrated with poly-DL-…
Measured endpoint: collision cross section (N2) (Å²)

1. CCCCCCCCCCCCCCCC(=O)O[C@H](CO)COP(=O)([O-])OCC[NH3+] : 216.39
2. CCCCCCCCCCCCCCCC(=O)OCC(COP(=O)(O)OCCN)OC(=O)CCCCCCCC1CC1CCCC (stereo not given) : 265.08
3. CCCCCCCCCCCCCCCC(=O)OCC(COP(=O)(O)OCCN)OC(=O)CCCCCCCCCCCCCCC (stereo not given) : 272.49
4. CCCCCCCCCCCCCCC(=O)OC[C@@H](O)COP(=O)([O-])OCC[NH3+] : 209.91
5. CCCCCCCCCCCCCC(=O)O[C@H](CO)COP(=O)([O-])OCC[NH3+] : 208.79
6. CCCCCC/C=C/CCCCCCCC(=O)O[C@H](CO)COP(=O)([O-])OCC[NH3+] : 208.94
7. CCCCCC/C=C\CCCCCCCC(=O)OCC(COP(=O)(O)OCCN)OC(=O)CCCCCCCC1CC1CCCCCCCC (stereo not given) : 275.82
8. CCCCCCCC/C=C\CCCCCCCC(=O)OC(COC(=O)CCCCCCCCCCCCCCCCC)COP(=O)(O)OCCN (stereo not given) : 280.06
9. CCCCCCCCCCCCCCCC(=O)OC[C@@H](O)COP(=O)([O-])OCC[NH3+] : 213.91
10. CCCCCCC1CC1CCCCCCCC(=O)OC[C@@H](O)COP(=O)([O-])OCC[NH3+] (stereo not given in full) : 212.27

----------
# Stated conditions: [M+2Na-H]+; instrument: DT; stepped-field
Measured endpoint: collision cross section (N2) (Å²)

1) CCCCC/C=C\C/C=C\C/C=C\C/C=C\CCCCCC(=O)O[C@H](COC(=O)CCCCCCC/C=C\CCCCCCCC)COP(=O)(O)O : 283.07
2) CCCCC/C=C\C/C=C\CCCCCCCCCCCC(=O)O[C@H](COC(=O)CCCCCCCCCCCCCCCCC)COP(=O)(O)OC[C@H](N)C(=O)O : 299.44
3) CCCCC/C=C\C/C=C\C/C=C\C/C=C\CCCCCC(=O)O[C@H](COC(=O)CCCCCCC/C=C\C/C=C\CCCCC)COP(=O)(O)OC[C@H](N)C(=O)O : 295.61
4) CCCCC/C=C\C/C=C\C/C=C\C/C=C\CCCCCC(=O)OC[C@H](COP(=O)(O)OC[C@H](N)C(=O)O)OC(=O)CCCCCCCCCCCCC : 281.53
5) CCCCCCCC/C=C\CCCCCCCC(=O)O[C@H](COC(=O)CCCCCCCCCCCCCCCCC)COP(=O)(O)OC[C@H](N)C(=O)O : 287.95
6) CCCCC/C=C\C/C=C\C/C=C\CCCCCCC(=O)O[C@H](COC(=O)CCCCCCC/C=C\C/C=C\CCCCC)COP(=O)(O)OCCN : 283.55
7) CC/C=C\C/C=C\C/C=C\CCCCCCCC(=O)O[C@H](COC(=O)CCCCCCCCCCCCCCC)COP(=O)(O)OCCN : 271.16
8) CCCCC/C=C\C/C=C\C/C=C\CCCCC(=O)O[C@H](COCCCCCCCCCCCCCCCCCC)COP(=O)(O)OCCN : 279.47
9) CCCCC/C=C\C/C=C\C/C=C\C/C=C\CCCCCC(=O)O[C@H](COC(=O)CCCCCCC/C=C\C/C=C\CCCCC)COP(=O)(O)OCCN : 287.86
10) CCCCCCCC/C=C\C/C=C\CCCCC(=O)OC[C@H](COP(=O)(O)OCCN)OC(=O)CCCC/C=C\C/C=C\CCCCCCCC : 277.05
11) CCCCCC/C=C\CCCCCCCC(=O)OC[C@H](COP(=O)(O)OC[C@H](N)C(=O)O)OC(=O)CCCCCCCCC/C=C\CCCCCCCCCC : 292.46
12) CC/C=C\C/C=C\C/C=C\C/C=C\C/C=C\CCCC(=O)OC[C@H](COP(=O)(O)OC[C@H](N)C(=O)O)OC(=O)CCCCCCCCCCCCCCCCCCCC : 298.43

----------
# Stated conditions: [M+HCOO]-; instrument: DT; stepped-field
Measured endpoint: collision cross section (N2) (Å²)

1) CCCCCCCC/C=C\C/C=C\CCCCC(=O)O[C@H](COC(=O)CCCCCCC/C=C\CCCCCCCC)COP(=O)([O-])OCC[N+](C)(C)C : 293.56
2) CCCCCCCCCCCCCCCCCCCCCCCC(=O)N[C@@H](COP(=O)([O-])OCC[N+](C)(C)C)[C@H](O)CCCCCCCCCCCCCCC : 308.73
3) CCCCCCCCCCCCC=CC[C@@H](O)[C@H](COP(=O)([O-])OCC[N+](C)(C)C)NC(=O)CCCCCCCCCCCCCCC : 284.66
4) CCCCCCCCCCCCC=CC[C@@H](O)[C@H](COP(=O)([O-])OCC[N+](C)(C)C)NC(=O)CC=CCCCCCCCCCCCCCCCCCC : 299.75
5) CCCCCCCCCCCCC=CC[C@@H](O)[C@H](CO[C@@H]1O[C@H](CO)[C@@H](O)C(O)C1O)NC(=O)CC=CCCCCCCCCCCCCCCCCCCCC (stereo partly specified) : 301.95
6) CCCC/C=C\CCCCCCCC(=O)OC[C@H](COP(=O)([O-])OCC[N+](C)(C)C)OC(=O)CCCCCCCCC/C=C\C/C=C\CCCCC : 288.8
7) CCCCCCCCCCCCC=CC[C@@H](O)[C@H](COP(=O)([O-])OCC[N+](C)(C)C)NC(=O)CCCCCCCCCCCCCCCCC : 290.34
8) CCCCCC/C=C\CCCCCCCCCC(=O)O[C@H](COC(=O)CCCCCCC/C=C\CCCCCC)COP(=O)([O-])OCC[N+](C)(C)C : 289.31
9) CCCCC/C=C\C/C=C\C/C=C\CCCCCCC(=O)O[C@H](COC(=O)CCCCCCC/C=C\CCCCCCCC)COP(=O)([O-])OCC[N+](C)(C)C : 298.03
10) CCCCCCCC/C=C\CCCCCCCCCC(=O)O[C@H](COC(=O)CCCCCCCCCCC)COP(=O)([O-])OCC[N+](C)(C)C : 284.71
11) CCCCCCCCCCC/C=C\CCCCC(=O)O[C@H](COC(=O)CCCCCCCCCCCCCCCCC)COP(=O)([O-])OCC[N+](C)(C)C : 296.46

----------
# Stated conditions: [M+Na]+; instrument: TW; calibrated with polyalanine and drug standards
Rule: collision cross section (N2) below 200 Å² gives Criterion met. Equal to or above 200 Å² gives Criterion not met.

1) CC[C@H](C)[C@H]1O[C@]2(CC[C@@H]1C)C[C@@H]1C[C@@H](C/C=C(\C)[C@@H](O[C@H]3C[C@H](OC)[C@@H](O[C@H]4C[C@H](OC)[C@@H](O)[C@H](C)O4)[C@H](C)O3)[C@@H](C)/C=C/C=C3\CO[C@@H]4[C@H](O)C(C)=C[C@@H](C(=O)O1)[C@]34O)O2 : Criterion not met
2) OC[C@@H](O)[C@@H](O[C@@H]1O[C@H](CO)[C@@H](O)[C@H](O)[C@H]1O)[C@H](O)[C@@H](O)CO [GLUCITOL-4-GUCOPYANOSIDE] : Criterion met
3) CC[C@@]1([C@@H]2O[C@@H]([C@H]3O[C@@](O)(CO)[C@H](C)C[C@@H]3C)C[C@@H]2C)CC[C@H]([C@]2(C)CC[C@]3(C[C@H](O)[C@@H](C)[C@@H]([C@@H](C)[C@@H](OC)[C@H](C)C(=O)O)O3)O2)O1 : Criterion not met
4) OC[C@H]1O[C@@H](Oc2ccc(O)cc2)[C@H](O)[C@@H](O)[C@@H]1O : Criterion met
